Data provenance is paper PMC7907646.

biological target: CgDM9CP-4 (rCgDM9CP-4) (Magallana gigas, UniProt A0A8W8N023); construct: full ORF, 145 residues, two tandem DM9 domains, predicted 16 kDa (~18 kDa on gel); pET-30a (NdeI/XhoI), His tag, E. coli Transetta (DE3), Ni column; test: ELISA on mannose-coated plate, one-site fit; settings: apparent Kd; mannose coated at 20 μg in pH 9.6 buffer; 5 mmol L^-1 CaCl2, 0.1 mg mL^-1 BSA, 37°C; anti-His detection
Sequence (A0A8W8N023 entry or part of it): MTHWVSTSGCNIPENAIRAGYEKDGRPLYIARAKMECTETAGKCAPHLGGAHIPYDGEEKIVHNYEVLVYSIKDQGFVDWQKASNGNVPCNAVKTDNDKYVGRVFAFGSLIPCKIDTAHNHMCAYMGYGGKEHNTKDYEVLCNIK
REPORTED_ENDPOINT: Kd (nM)
Just the number please, in nM, no unit attached.

May I ask what Kd has been recorded for OC[C@H]1OC(O)[C@@H](O)[C@@H](O)[C@@H]1O (stereo partly shown) ?
90
